- SYSTEM: Cytochrome P450 2C19 (Homo sapiens, UniProt P33261)
- Sequence (P33261 whole entry): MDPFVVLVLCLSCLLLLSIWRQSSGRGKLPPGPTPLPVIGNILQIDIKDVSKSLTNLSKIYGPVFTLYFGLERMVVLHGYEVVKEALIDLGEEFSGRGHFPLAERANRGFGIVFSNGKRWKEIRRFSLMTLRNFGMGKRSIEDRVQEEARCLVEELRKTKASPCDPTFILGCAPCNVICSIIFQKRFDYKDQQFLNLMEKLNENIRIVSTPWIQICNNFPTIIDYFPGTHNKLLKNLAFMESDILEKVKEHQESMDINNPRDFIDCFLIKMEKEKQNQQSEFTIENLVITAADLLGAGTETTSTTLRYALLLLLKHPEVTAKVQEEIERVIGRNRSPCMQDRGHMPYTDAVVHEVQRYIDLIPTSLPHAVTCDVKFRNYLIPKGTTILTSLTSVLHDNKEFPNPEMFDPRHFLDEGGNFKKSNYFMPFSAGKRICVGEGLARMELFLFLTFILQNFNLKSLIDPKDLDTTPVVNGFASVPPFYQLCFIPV
pIC50: −log10 of the molar value.
ENDPOINT LABEL: pIC50

smiles_repr=O=C(c1nn2c(C(F)(F)F)cc(C3CC3)cc2c1Cl)N1CCN([C@H]2C[C@@H]3C[C@@H]3[C@@H]2O)C(=O)C1 endpoint_label=pIC50 readout_value="< 4.70"

---

- EXPERIMENT SUMMARY: AUC (0 to infinity) in CD rat at 5 mg/kg, po by LC/MS/MS analysis
- Format: ADME, organism-based
- Parameters: time infinity, dose 5 mg/kg, route oral
- CONDITION CONTEXT: plasma
ENDPOINT LABEL: AUC(0-inf) (ng·h/mL)

smiles_repr=O=C(c1nn2c(C(F)(F)F)cc(C3CC3)cc2c1Cl)N1CCN([C@H]2C[C@@H]3C[C@@H]3[C@@H]2O)C(=O)C1 endpoint_label=AUC(0-inf) readout_value=3100

---

- EXPERIMENT SUMMARY: AUC (0 to infinity) in beagle dog at 5 mg/kg, po by LC/MS/MS analysis
- Format: ADME, organism-based, Canis lupus familiaris
- Design: time infinity, dose 5 mg/kg, route oral
- CONDITION CONTEXT: plasma
ENDPOINT LABEL: AUC(0-inf)

smiles_repr=O=C(c1nn2c(C(F)(F)F)cc(C3CC3)cc2c1Cl)N1CCN([C@H]2C[C@@H]3C[C@@H]3[C@@H]2O)C(=O)C1 endpoint_label=AUC(0-inf) readout_value="25000 ng·h/mL"

---

- SYSTEM: Cytochrome P450 2C9 (Homo sapiens, UniProt P11712)
- Sequence (P11712 whole entry): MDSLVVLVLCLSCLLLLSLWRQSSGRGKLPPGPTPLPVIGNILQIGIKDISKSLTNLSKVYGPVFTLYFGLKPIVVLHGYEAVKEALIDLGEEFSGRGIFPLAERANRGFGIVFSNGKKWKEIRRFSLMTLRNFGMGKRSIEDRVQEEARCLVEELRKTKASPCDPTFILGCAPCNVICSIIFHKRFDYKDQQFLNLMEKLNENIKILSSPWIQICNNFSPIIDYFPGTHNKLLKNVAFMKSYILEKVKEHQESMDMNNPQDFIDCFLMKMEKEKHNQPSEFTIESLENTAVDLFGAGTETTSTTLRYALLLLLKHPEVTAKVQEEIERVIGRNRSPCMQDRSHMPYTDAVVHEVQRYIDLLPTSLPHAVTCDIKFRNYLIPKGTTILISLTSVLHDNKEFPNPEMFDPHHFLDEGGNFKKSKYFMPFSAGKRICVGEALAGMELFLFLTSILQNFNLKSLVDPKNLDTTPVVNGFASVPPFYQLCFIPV
- EXPERIMENT SUMMARY: Inhibition of CYP2C9 in human liver microsomes after 10 mins by LC/MS/MS analysis
- Format: ADME
pIC50: −log10 of the molar value.
ENDPOINT LABEL: pIC50

smiles_repr=O=C(c1nn2c(C(F)(F)F)cc(C3CC3)cc2c1Cl)N1CCN([C@H]2C[C@@H]3C[C@@H]3[C@@H]2O)C(=O)C1 system="Cytochrome P450 2C9 (Homo sapiens, UniProt P11712)" readout_value="< 4.70"

---

- EXPERIMENT SUMMARY: Oral bioavailability in CD-1 mouse at 5 mg/kg by LC/MS/MS analysis
- Format: ADME, organism-based
- CONDITION CONTEXT: in vivo
ENDPOINT LABEL: bioavailability (%)

smiles_repr=O=C(c1nn2c(C(F)(F)F)cc(C3CC3)cc2c1Cl)N1CCN([C@H]2C[C@@H]3C[C@@H]3[C@@H]2O)C(=O)C1 endpoint_label=bioavailability readout_value=12

---

- EXPERIMENT SUMMARY: Toxicity in po dosed PXB mouse assessed as compound accumulation administered bid every 12 hrs for 7 days
- Format: organism-based
- CONDITION CONTEXT: in vivo
ENDPOINT LABEL: MTD at 7 days (mg/kg)

smiles_repr=O=C(c1nc2c(C(F)(F)F)cc(C3CC3)cn2c1Cl)N1CCN([C@H]2CC[C@H](OP(=O)(O)O)CC2)C(=O)C1 readout_value=10

---

In this section we review reported fraction unbound at 4 h, 5 µM values for a set of molecules.
- EXPERIMENT SUMMARY: Plasma protein binding in CD rat at 5 uM after 4 hrs by rapid equilibrium dialysis method
- Type: ADME, cell-free
- CONDITION CONTEXT: read-out: PPB (converted)
ENDPOINT LABEL: fraction unbound at 4 h, 5 µM

smiles_repr=O=C(c1nn2c(C(F)(F)F)cc(C3CC3)cc2c1Cl)N1CCN([C@H]2C[C@@H]3C[C@@H]3[C@@H]2O)C(=O)C1 endpoint_label="fraction unbound at 4 h, 5 µM" readout_value=0.04
smiles_repr=O=C(c1nc2c(C(F)(F)F)cc(C3CC3)cn2c1Cl)N1CCN([C@H]2CC[C@H](O)CC2)C(=O)C1 endpoint_label="fraction unbound at 4 h, 5 µM" readout_value=0.2

Origin of the recorded values: ChEMBL document CHEMBL3124867
